This section presents molecules with their documented growth inhibition values.
- experiment: NCI Yeast Anticancer Drug Screen. Data for the rad50 strain (AID 155);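 also: 0% = growth of vehicle-only cultures of the same strain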
- applied.conditions: S. cerevisiae rad50 strain growth inhibition; at 50.0 µM; stronger effect = higher value
About 79,000 compounds went through this panel and 15% of them were active in at least one assay; those are over-represented in the sample as a whole.
Output spec: scalar in %, unitless text.

Some solved cases for reference:
C/C1=C\[C@H](C)C[C@H](C)OC(=O)C[C@H](c2ccc(O)cc2)NC(=O)[C@@H](Cc2c(Br)[nH]c3ccccc23)N(C)C(=O)[C@H](C)NC(=O)[C@@H](C)C1    84.8
CC1(C)CC(=O)CC(C)(C)C1    -25.6
CN(C)CCSC(c1ccccc1)c1ccc(Br)cc1 (stereo unspecified)    32.5
O=C1C2C(C(=O)N1c1ccc(O)cc1)C1(Cl)C(Cl)=C(Cl)C2(Cl)C1(Cl)Cl (stereo unspecified)    -0.45
COc1ccc([N+](=O)[O-])cc1N=Cc1ccc(N(CCCl)CCCl)cc1C    43
OC1CC([CH2][Hg][I])OC([CH2][Hg][I])C1 (stereo unspecified)    92.8

Exam item: Output measured growth inhibition for this item: `CC(=O)CC(C)=O.CC(=O)CC(C)=O.[Ni]`
Marked response: -39

Exam item: Output measured growth inhibition for this item: `O=C(Nc1ccccc1)c1cc([N+](=O)[O-])ccc1O.[Ni]`
Marked response: 69.3

Exam item: Output measured growth inhibition for this item: `CCCCCCCCCCCCCCCC[N+](C)(C)CCOS(C)(=O)=O`
Marked response: 91.2

Exam item: Output measured growth inhibition for this item: `C/C(=C\COc1ccc2ccc(=O)oc2c1)C1=CC(=O)C(C)(C)O1`
Marked response: -2.65

Exam item: Output measured growth inhibition for this item: `c1ccc(-c2ccc([As](c3ccccc3)c3ccccc3)cc2)cc1`
Marked response: 11.4
